Molecular target: UniProt:Q9NYK1
Sequence (Q9NYK1 27-1049): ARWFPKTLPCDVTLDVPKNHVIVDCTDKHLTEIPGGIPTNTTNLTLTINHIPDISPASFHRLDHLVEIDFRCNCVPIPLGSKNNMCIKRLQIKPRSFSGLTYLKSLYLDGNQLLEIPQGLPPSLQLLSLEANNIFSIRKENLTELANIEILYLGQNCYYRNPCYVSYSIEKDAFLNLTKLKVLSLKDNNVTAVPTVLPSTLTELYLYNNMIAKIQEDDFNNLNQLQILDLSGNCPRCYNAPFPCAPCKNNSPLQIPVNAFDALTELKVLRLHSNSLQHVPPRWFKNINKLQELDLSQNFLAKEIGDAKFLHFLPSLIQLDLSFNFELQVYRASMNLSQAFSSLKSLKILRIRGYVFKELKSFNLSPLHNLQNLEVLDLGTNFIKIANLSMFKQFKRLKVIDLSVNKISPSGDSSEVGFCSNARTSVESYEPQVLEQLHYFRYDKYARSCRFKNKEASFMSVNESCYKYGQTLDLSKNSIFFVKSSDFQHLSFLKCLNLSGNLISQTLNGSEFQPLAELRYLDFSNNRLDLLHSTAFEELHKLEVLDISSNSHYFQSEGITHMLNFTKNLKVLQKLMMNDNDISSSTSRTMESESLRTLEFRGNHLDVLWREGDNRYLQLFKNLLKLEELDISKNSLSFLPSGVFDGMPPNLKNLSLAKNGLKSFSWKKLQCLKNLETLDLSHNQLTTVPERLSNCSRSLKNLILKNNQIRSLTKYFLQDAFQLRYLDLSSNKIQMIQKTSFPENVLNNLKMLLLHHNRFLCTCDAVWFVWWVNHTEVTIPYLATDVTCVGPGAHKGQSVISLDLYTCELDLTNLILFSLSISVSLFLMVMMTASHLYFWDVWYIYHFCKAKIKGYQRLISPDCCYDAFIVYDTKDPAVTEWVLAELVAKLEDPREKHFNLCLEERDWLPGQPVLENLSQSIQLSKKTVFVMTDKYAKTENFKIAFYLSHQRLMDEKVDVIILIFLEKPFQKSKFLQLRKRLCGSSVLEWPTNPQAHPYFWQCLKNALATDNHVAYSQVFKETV
Test: TLR7 inhibition reporter assay (HEK-Blue cells, SEAP reporter, gardiquimod stimulation)
Type: cell-based
Conditions: HEK-Blue cells overexpressing human TLR7, gardiquimod 7.5 μM
Quick rule for you: IC50 under 20 nM gets T, anything else gets F.

Observe how each entry below is paired with its result.
> print(dat)
                                   molecule  categorylabel
1  COCCC(=O)N1CCC(c2ccc3[nH]c(-c4ccnc(C)c4)c(C(C)C)c3c2)CC1 [Example 571]              F
2  COCCN1CCN(CC(=O)N2CCC(c3ccc4[nH]c(-c5cc(C)nc(C)c5)c(C(C)C)c4c3)CC2)CC1 [Example 372]              T
3  Cc1cc(-c2[nH]c3ccc(C4CCN(CC(=O)N(C)C)CC4)cc3c2C(C)C)cc(C2CC2)n1 [Example 505]              T
4  Cc1cc(-c2[nH]c3ccc(C4CCN(CC(F)(F)F)CC4)cc3c2C(C)C)ccn1 [Example 658]              F
5  Cc1cc(-c2[nH]c3ccc(C4CCN(CC(=O)NC56CC7CC(CC(C7)C5)C6)CC4)cc3c2C(C)C)cc(C)n1 [Example 224]              F
6  Cc1cc(-c2[nH]c3ccc(C4CCN(CC(C)(C)O)CC4)cc3c2C2CC2)cc(C)n1 [Example 668]              T
7  Cc1cc(-c2[nH]c3ccc(C4CCN(C(=O)CN(C)Cc5ncn(C)n5)CC4)cc3c2C(C)C)cc(C)n1 [Example 419]              T
8  Cc1cc(-c2[nH]c3ccc(C4CCNCC4)cc3c2C(C)C)cc(C)n1.Cl [Example 1, hydrochloride]              T

Query :: I wonder whether CNCC(=O)N1CCC(c2ccc3[nH]c(-c4cc(C5CC5)ncc4F)c(C(C)C)c3c2)CC1 [Example 518] has IC50 below 20 nM. Can you tell?
Result :: T

Query :: I wonder whether Cc1cc(-c2[nH]c3ccc(C4CCN(C(=O)CCC5CCNCC5)CC4)cc3c2C(C)C)ccn1 [Example 568] has IC50 below 20 nM. Can you tell?
Result :: T

Query :: I wonder whether Cc1cc(-c2[nH]c3ccc(C4CCN(Cc5ccncc5)CC4)cc3c2C(C)C)cc(C)n1 [Example 435] has IC50 below 20 nM. Can you tell?
Result :: T

Query :: I wonder whether CCN(CC)C(=O)CN1CCC(c2ccc3[nH]c(-c4cc(C)nc(C)c4)c(C(C)C)c3c2)CC1 [Example 228] has IC50 below 20 nM. Can you tell?
Result :: T

Query :: I wonder whether Cc1cc(-c2[nH]c3ccc(C4CCN(C(=O)CCN5CCOCC5)CC4)cc3c2C(C)C)c(F)cn1 [Example 657] has IC50 below 20 nM. Can you tell?
Result :: T

Query :: I wonder whether CCc1cc(-c2[nH]c3ccc(C4CCNCC4)cc3c2C(C)C)cc(C)n1 [Example 479] has IC50 below 20 nM. Can you tell?
Result :: F

Query :: I wonder whether Cc1nccc(-c2[nH]c3ccc(C4CCNCC4)cc3c2C(C)C)c1N [Example 13] has IC50 below 20 nM. Can you tell?
Result :: T

Query :: I wonder whether CC(C)c1c(-c2ccnc(CN)c2)[nH]c2ccc(C3CCNCC3)cc12 [Example 14] has IC50 below 20 nM. Can you tell?
Result :: F
